The measured values listed here are drawn from patent US9346832B2.

# System: HepG2 human hepatocellular carcinoma cells
# measurement.notes: HepG2 cytotoxicity / cell health parameters
# Format: cell-based
# stated.conditions: HepG2; read-out: Nuclear Area AC50
readout: AC50 (µM)
# output: bare number, implied unit µM

Inquiry: Would you kindly share the measured AC50 for C1=NCCCN=Cc2ccc[n]2[Au+][n]2cccc21.[Cl-] ?
Reply text: 17

---

# Test system: HepG2 human hepatocellular carcinoma cells
# measurement.notes: HepG2 cytotoxicity / cell health parameters
# Assay type: cell-based
# stated.conditions: HepG2; read-out: Membrane permeability AC50
readout: AC50
Respond with the figure and its unit, in that order.

Inquiry: Give the measured AC50 of C1=NCCCN=Cc2ccc[n]2[Au+][n]2cccc21.[Cl-] .
Reply text: 16 µM

---

# Tested on: HepG2 human hepatocellular carcinoma cells
# measurement.notes: HepG2 cytotoxicity / cell health parameters
# Type: cell-based
# stated.conditions: HepG2; read-out: Cell Loss AC50
readout: AC50 (µM)
// note: answer is a bare numeric in µM

Inquiry: I have this molecule here, C1=NCCCN=Cc2ccc[n]2[Au+][n]2cccc21.[Cl-] , and I need its recorded AC50.
Reply text: 7.4

---

# system.name: topoisomerase II (topo II) (Homo sapiens, UniProt P11388)
# Sequence (P11388 whole entry): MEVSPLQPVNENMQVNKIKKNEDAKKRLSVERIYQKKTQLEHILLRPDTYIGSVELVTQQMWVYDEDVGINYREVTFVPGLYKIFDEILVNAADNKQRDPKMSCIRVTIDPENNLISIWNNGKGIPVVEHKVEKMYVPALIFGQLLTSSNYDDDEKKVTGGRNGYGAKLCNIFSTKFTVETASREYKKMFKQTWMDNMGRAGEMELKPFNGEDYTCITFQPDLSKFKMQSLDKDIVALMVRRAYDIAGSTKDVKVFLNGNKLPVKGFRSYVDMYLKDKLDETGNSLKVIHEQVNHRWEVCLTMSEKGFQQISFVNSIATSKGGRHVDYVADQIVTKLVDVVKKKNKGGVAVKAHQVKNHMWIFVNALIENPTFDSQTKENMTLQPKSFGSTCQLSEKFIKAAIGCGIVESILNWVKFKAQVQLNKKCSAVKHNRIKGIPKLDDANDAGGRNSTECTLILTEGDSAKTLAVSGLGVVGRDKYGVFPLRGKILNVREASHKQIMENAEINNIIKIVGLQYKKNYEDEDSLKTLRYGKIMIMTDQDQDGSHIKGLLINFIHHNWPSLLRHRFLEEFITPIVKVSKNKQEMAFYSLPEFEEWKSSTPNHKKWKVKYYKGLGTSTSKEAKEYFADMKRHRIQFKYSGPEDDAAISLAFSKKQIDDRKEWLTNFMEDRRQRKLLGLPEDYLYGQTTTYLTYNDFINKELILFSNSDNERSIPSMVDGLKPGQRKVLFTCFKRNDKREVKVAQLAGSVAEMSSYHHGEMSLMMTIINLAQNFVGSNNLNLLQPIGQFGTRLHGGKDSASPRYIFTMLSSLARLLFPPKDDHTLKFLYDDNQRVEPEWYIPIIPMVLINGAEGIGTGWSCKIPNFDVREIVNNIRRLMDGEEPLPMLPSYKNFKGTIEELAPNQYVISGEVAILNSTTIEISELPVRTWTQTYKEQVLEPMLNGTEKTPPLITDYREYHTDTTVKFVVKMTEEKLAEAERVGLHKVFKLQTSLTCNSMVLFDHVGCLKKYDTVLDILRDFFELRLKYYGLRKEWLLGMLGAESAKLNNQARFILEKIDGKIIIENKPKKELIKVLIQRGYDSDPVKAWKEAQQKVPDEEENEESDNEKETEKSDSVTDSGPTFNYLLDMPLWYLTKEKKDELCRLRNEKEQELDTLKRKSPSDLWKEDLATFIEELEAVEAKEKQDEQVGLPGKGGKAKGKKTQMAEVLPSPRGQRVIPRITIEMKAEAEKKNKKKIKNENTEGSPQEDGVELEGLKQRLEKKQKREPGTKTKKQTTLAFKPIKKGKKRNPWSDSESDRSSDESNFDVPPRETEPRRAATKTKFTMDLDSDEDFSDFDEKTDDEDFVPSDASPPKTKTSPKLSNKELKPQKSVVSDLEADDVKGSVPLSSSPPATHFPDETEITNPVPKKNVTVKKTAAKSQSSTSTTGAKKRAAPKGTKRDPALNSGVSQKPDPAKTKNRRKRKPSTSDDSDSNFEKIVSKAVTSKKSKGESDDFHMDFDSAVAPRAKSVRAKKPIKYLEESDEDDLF
readout: pIC50
As a rule, pIC50 stands for the negative log10 of the concentration, concentration in M.

Inquiry: What does the record list as pIC50 for C1=[N+]2CCC[N+]3=Cc4ccc5[n]4[Au-]23[n]2c1ccc2-c1nc2ccccc2nc1-5.F[P-](F)(F)(F)(F)F [KA_AumacroPr] ?
Reply text: 5.32

---

# measurement.notes: Caco-2 transport
# stated.conditions: human
readout: Papp A→B at 2 h, 10 µM (×10⁻⁶ cm/s)
Please state the figure in ×10⁻⁶ cm/s; there is no need to write the unit.

Inquiry: Given the entry CNC(=C[N+](=O)[O-])NCCSCc1ccc(CN(C)C)o1 , report its measured Papp A→B at 2 h, 10 µM.
Reply text: 0.7

---

# measurement.notes: HepG2 cytotoxicity / cell health parameters
# Assay type: cell-based, human
# stated.conditions: human, Nuclear Area AC50
readout: AC50
Value and unit, in that order.

Inquiry: Fill blank: measured AC50 of the compound CN(C)CCCN1c2ccccc2Sc2ccc(Cl)cc21 [Chlorpromazine, reference compound] is ____.
Reply text: 100 µM

---

# measurement.notes: HepG2 cytotoxicity / cell health parameters
# Format: cell-based, human
# stated.conditions: human, Membrane permeability AC50
readout: AC50 (µM)
Write down the numeric answer in µM and omit the unit.

Inquiry: Param item = CN(C)CCCN1c2ccccc2Sc2ccc(Cl)cc21 [Chlorpromazine, reference compound] ; retrieve measured AC50.
Reply text: 30

---

# System: HeLa cells
# measurement.notes: HeLa cell cytotoxicity dose-response
# Type: cell-based
# stated.conditions: pH 7.0, 37° C.
readout: IC50 (µM)
Numbers only here, please. The scale is µM.

Inquiry: // query IC50 value for entry C1=[N+]2CCCC[N+]3=Cc4ccc5[n]4[Au-]23[n]2c1ccc2-c1nc2ccccc2nc1-5.F[P-](F)(F)(F)(F)F
Reply text: 0.37

---

# System: HepG2 human hepatocellular carcinoma cells
# measurement.notes: HepG2 cytotoxicity / cell health parameters
# Format: cell-based
# stated.conditions: HepG2; read-out: Mitochondrial membrane potential AC50
readout: AC50

Inquiry: Can you look up the measured AC50 of C1=NCCCN=Cc2ccc[n]2[Au+][n]2cccc21.[Cl-] [MA_AuPr] for me?
Reply text: > 500 µM
